B1: VENTX (parent)
chain: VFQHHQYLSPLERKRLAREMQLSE

Variants of: B1
Test: protein stability index of a GFP-peptide fusion (GPS, HEK-293T) (PSI 1-6); higher = more stable;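 further: lentivirally expressed fusions sorted by FACS into six bins by GFP to DsRed ratio, PSI derived from sequencing read proportions per bin multiplied by bin number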
Conditions: c terminus: a fixed tail appended
ASSAY_METRIC: protein stability index

variant_string=Q21I value_observed=2.32
variant_string=E24T value_observed=2.27
variant_string=E24F value_observed=1.93
variant_string=L11R value_observed=2.31
variant_string=R13D value_observed=2.56
variant_string=Q21T value_observed=2.49
variant_string=R18Y value_observed=2
variant_string=Q3G value_observed=2.82
variant_string=Q21E value_observed=2.54
variant_string=M20F value_observed=2.04
variant_string=Q21N value_observed=2.29
variant_string=K14E value_observed=3.3
variant_string=M20G value_observed=2.71
variant_string=K14W value_observed=1.81
variant_string=Q21C value_observed=2.5
variant_string=R13E value_observed=2.44
variant_string=Y7D value_observed=3.84
variant_string=R15Q value_observed=2.57
variant_string=H4E value_observed=3.52
variant_string=H4Y value_observed=2.21
variant_string=R15M value_observed=2.02
variant_string=P10T value_observed=1.86
variant_string=E12V value_observed=2.74
variant_string=L22F value_observed=1.83
variant_string=L16N value_observed=2.92
variant_string=S23P value_observed=2.78
variant_string=S23T value_observed=2.44
variant_string=R15E value_observed=2.41
variant_string=Q6A value_observed=2.75
variant_string=S23M value_observed=2.4
variant_string=P10M value_observed=2.23
variant_string=R18T value_observed=2.9
variant_string=H5N value_observed=2.83
variant_string=A17E value_observed=2.93
variant_string=M20L value_observed=2.75
variant_string=R15K value_observed=2.44
variant_string=R13N value_observed=3.31
variant_string=R13C value_observed=2.45
variant_string=Y7I value_observed=2.54
variant_string=A17T value_observed=2.97
variant_string=R18A value_observed=2.28
variant_string=L8R value_observed=2.25
variant_string=E12R value_observed=2.45
variant_string=P10D value_observed=2.31
variant_string=R15F value_observed=1.72
variant_string=R13S value_observed=2.44
variant_string=L16A value_observed=2
variant_string=P10H value_observed=2.73
variant_string=H5M value_observed=3.19
variant_string=R13V value_observed=2.4
variant_string=S9K value_observed=2.39
variant_string=R18N value_observed=2.34
variant_string=K14A value_observed=2.67
variant_string=L8E value_observed=3.66
variant_string=L8A value_observed=2.65
variant_string=S9P value_observed=2.88
variant_string=V1T value_observed=2.88
variant_string=Y7A value_observed=2.98
variant_string=R15P value_observed=2.36
variant_string=R18H value_observed=2.74
variant_string=Q3K value_observed=3
variant_string=L11E value_observed=3.41
variant_string=V1N value_observed=2.9
variant_string=R13W value_observed=1.87
variant_string=S9H value_observed=2.38
variant_string=A17H value_observed=2.24
variant_string=E19S value_observed=2.42
variant_string=Q6M value_observed=2.56
variant_string=Q3N value_observed=3.05
variant_string=Q6T value_observed=2.75
variant_string=V1K value_observed=2.6
variant_string=F2P value_observed=4.18
